Answer each item with its documented Rmax.
- Target Or System: human FGFR2b (Homo sapiens, UniProt P21802)
- Sequence (P21802 22-822 isoform P21802-3 limits assumed): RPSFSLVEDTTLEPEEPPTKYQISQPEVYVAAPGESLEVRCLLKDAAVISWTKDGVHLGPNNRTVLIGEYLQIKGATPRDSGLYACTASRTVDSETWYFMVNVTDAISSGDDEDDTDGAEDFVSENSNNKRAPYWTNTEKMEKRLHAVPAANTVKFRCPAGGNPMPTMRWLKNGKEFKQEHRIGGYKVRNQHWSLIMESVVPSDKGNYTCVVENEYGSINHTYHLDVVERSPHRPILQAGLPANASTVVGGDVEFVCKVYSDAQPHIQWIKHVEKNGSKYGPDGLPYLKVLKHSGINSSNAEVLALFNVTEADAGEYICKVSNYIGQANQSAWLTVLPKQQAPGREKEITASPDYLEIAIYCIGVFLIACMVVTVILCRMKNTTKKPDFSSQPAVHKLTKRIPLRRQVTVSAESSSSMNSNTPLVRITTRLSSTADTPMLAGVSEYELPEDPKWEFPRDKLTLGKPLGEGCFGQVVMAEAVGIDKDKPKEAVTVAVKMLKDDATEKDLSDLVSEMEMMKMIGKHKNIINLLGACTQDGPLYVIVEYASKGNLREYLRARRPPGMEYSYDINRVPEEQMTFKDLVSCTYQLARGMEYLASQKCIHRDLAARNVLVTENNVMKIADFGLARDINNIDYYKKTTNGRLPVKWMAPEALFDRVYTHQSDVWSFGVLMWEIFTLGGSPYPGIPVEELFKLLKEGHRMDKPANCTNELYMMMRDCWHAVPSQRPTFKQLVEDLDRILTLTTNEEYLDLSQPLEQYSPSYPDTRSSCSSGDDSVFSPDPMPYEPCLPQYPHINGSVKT
- Assay Notes: SPR affinity determination, human FGFR2b (Example 9)
- Format: binding
Value expressed in RU; do not type the unit.

Query string: # return recorded Rmax for entry BGAm1371: parental murine anti-FGFR2b antibody (parental mouse clone); VH SEQ ID NO: 32, VL SEQ ID NO: 34 (antibody, V domains shown, Synthetic: VH AA; Synthetic: VL AA) VH: QVQLKQSGAELVKPGASVKLSCTASGFNIKDTYIHWVKQRPEQGLEWIGRIDPANGNTMFASEFQGKATITAYTSSNTAYMQLSSLTSGDTAVYYCARSKIHYDYDEGFAYWGQGTLVTVSS VL: NIVLTQSPPSLAVSLGQRATVSCRASESVDDYGYSFLHWYQQKPGQPPKLLIYRASNLESGIPARFSGSGSRTDFTLTINPVETDDVATYYCQQSNQNPRTFGGGTKLEIK
Result string: 96.3

Query string: # return recorded Rmax for entry BGAh9239: humanized anti-FGFR2b IgG1 antibody from murine BGAm1823; VH SEQ ID NO: 9, VL SEQ ID NO: 10 (antibody, V domains shown, Synthetic: VH AA; Synthetic: VL AA) VH: QVQLVQSGAEVKKPGSSVKVSCKASGYTFSIYWLNWVRQAPGQGLEWMGQIYPENADTNYSGKFKGRVTITADKSTSTAYMELSSLRSEDTAVYFCARGGFDYWGQGTLVTVSS VL: DIQMTQSPSSLSASVGDRVTITCRASENIYSNLAWYQQKPGKAPKLLIYTATNLAEGVPSRFSGSGSGTDFTLTISSLQPEDFATYYCQHFYGILYTFGQGTRLEIK
Result string: 80.9

Query string: # return recorded Rmax for entry BGAm1823: parental murine anti-FGFR2b antibody; VH SEQ ID NO: 28, VL SEQ ID NO: 30 (antibody, V domains shown, Synthetic: VH AA; Synthetic: VL AA) VH: EVQLQQSGAELVKPGASVKISCKASGYAFSIYWMNWVKQRPGKGLEWIGQIYPENGDTNYNGKFKGKATLTADKSSSTAYMHLSSLTSEDSAVYFCARGGFDYWGQGTTLTVSS VL: NIVMTQSPASLSASVGETVTITCRASENIYSNLAWYQQKQGKSPQLLVYTATNLADGVPSRFSGSGSGTQFSLKINSLQPEDFGSYYCQHFYGILYTFGSGTRLEIK
Result string: 85.7
